test-target: MRGPRX2-MUT (MRGPRX2 N62S mutation) (Homo sapiens, UniProt Q96LB1, N62S)
Construct: expressed in transfected cells
Sequence (Q96LB1 whole entry N62S): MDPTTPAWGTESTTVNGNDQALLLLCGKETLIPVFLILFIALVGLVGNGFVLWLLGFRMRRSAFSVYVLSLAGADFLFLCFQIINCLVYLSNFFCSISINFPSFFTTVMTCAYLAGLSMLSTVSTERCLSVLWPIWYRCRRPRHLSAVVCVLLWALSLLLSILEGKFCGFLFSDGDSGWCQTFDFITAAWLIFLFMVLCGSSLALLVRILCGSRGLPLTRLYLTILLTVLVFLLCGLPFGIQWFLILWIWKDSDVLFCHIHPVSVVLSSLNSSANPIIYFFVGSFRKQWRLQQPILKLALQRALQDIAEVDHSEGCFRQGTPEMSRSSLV
assay: Primary HTS, Ca2+ mobilization (fluorescence ratio, B-score) in HEK293-Gα15 cells stably expressing the MRGPRX2 N62S mutation
Type: cell-based
condition-context: MRGPRX2-MUT in comparison to MRGPRX2-WT cells, 10 μM, Table 1
Structures can show the parent of a compound that is named as a salt.
readout: Change of B-scores (%)
One number for each entry, in %.

Use the examples below as a reference point.
CNCCCC1c2ccccc2C=Cc2ccccc21 [Protriptyline Hydrochloride] :: -85.30
CO[C@H]1/C=C/O[C@@]2(C)Oc3c(C)c(O)c4c(O)c(c(/C=N/N5CCN(C)CC5)c(O)c4c3C2=O)NC(=O)/C(C)=C\C=C\[C@H](C)[C@H](O)[C@@H](C)[C@@H](O)[C@@H](C)[C@H](OC(C)=O)[C@@H]1C :: -98.45
C[C@H]1COc2c(N3CCN(C)CC3)c(F)cc3c(=O)c(C(=O)O)cn1c23 :: -101.85
CCOC(=O)N1CCC(=C2c3ccc(Cl)cc3CCc3cccnc32)CC1 :: -115.04

# context switch: different compound, same Change of B-scores (%)
Param item: CN(C)CCOC(c1ccc(Cl)cc1)c1ccccn1 (centres unmarked) [Carbinoxamine Maleate] ; param system: MRGPRX2-MUT (MRGPRX2 N62S mutation) (Homo sapiens, UniProt Q96LB1, N62S); output Change of B-scores (%): -96.18

Where do the numbers come from? From paper PMC9635925.
